All values here come from paper PMC7188706.

assayName: Plasma pharmacokinetics and drug monitoring of high-dose, pulsatile sorafenib (LC-MS/MS, non-compartmental)
experimentalParameters: human, plasma, oral, 2333 mg, Cmax week 3, mean (± SD), Cohort 3, PK-guided dose week 3 2333 (± 219) mg
reportedProperty: Cmax (ng/mL)
Give just the numeric value; ng/mL need not be written.

So, CNC(=O)c1cc(Oc2ccc(NC(=O)Nc3ccc(Cl)c(C(F)(F)F)c3)cc2)ccn1 ? Its Cmax was 13300

----------
assayName: Plasma pharmacokinetics and drug monitoring of high-dose, pulsatile sorafenib (LC-MS/MS, non-compartmental)
experimentalParameters: human, plasma, oral, 2800 mg, Observed AUC(0–12 h) week 1, mean (± SD), Cohort 4, 3 patients, target AUC(0–12 h) 125–150 mg/L/h, fixed dose week 1 2800 mg
reportedProperty: AUC(0-t)
Give your result as the value with the unit written after it.

So, CNC(=O)c1cc(Oc2ccc(NC(=O)Nc3ccc(Cl)c(C(F)(F)F)c3)cc2)ccn1 [sorafenib] ? Its AUC(0-t) was 120 µg·h/mL

----------
assayName: Plasma pharmacokinetics and drug monitoring of high-dose, pulsatile sorafenib (LC-MS/MS, non-compartmental)
experimentalParameters: human, plasma, oral, 1000 mg, AUC(0–12 h), range, first exposure cohort, target AUC(0–12 h) 25–50 mg/L/h
reportedProperty: AUC(0-t)

So, CNC(=O)c1cc(Oc2ccc(NC(=O)Nc3ccc(Cl)c(C(F)(F)F)c3)cc2)ccn1 [sorafenib] ? Its AUC(0-t) was 61000 to 103000 ng·h/mL

----------
assayName: Plasma pharmacokinetics and drug monitoring of high-dose, pulsatile sorafenib (LC-MS/MS, non-compartmental)
experimentalParameters: human, plasma, oral, 533 mg, Cmax week 3, mean (± SD), Cohort 1, PK-guided dose week 3 533 (± 306) mg
reportedProperty: Cmax (ng/mL)
Give just the numeric value; ng/mL need not be written.

So, CNC(=O)c1cc(Oc2ccc(NC(=O)Nc3ccc(Cl)c(C(F)(F)F)c3)cc2)ccn1 ? Its Cmax was 4380

----------
assayName: Plasma pharmacokinetics and drug monitoring of high-dose, pulsatile sorafenib (LC-MS/MS, non-compartmental)
experimentalParameters: human, plasma, oral, 1000 mg, Observed AUC(0–12 h) week 1, mean (± SD), Cohort 1, 3 patients, target AUC(0–12 h) 25–50 mg/L/h, fixed dose week 1 1000 mg
reportedProperty: AUC(0-t) (ng·h/mL)
Give just the numeric value; ng·h/mL need not be written.

So, CNC(=O)c1cc(Oc2ccc(NC(=O)Nc3ccc(Cl)c(C(F)(F)F)c3)cc2)ccn1 ? Its AUC(0-t) was 78000

----------
assayName: Plasma pharmacokinetics and drug monitoring of high-dose, pulsatile sorafenib (LC-MS/MS, non-compartmental)
experimentalParameters: human, plasma, oral, 3600 mg, observed AUC(0–12 h), individual patient, patient with grade 5 biliary tract perforation, sorafenib dose 3600 mg
reportedProperty: AUC(0-t) (µg·h/mL)
Give just the numeric value; µg·h/mL need not be written.

So, CNC(=O)c1cc(Oc2ccc(NC(=O)Nc3ccc(Cl)c(C(F)(F)F)c3)cc2)ccn1 ? Its AUC(0-t) was 182
